Values from patent US11655231B2

experiment: Onset temperature of desolvation in TG test (thermogravimetric analysis); type: physicochemical; details: TGA, heating rate 10° C./min, 25° C. to 250° C., nitrogen
Recorded measurements of Onset temperature of desolvation in TG test, one per entry
measurement label: Onset temperature of desolvation in TG test (°C)

compound	quantitative readout
Cc1ccc(-c2ncc(Cl)cc2-c2ccc(S(C)(=O)=O)cc2)cn1 [EG solvate]	96
Cc1ccc(-c2ncc(Cl)cc2-c2ccc(S(C)(=O)=O)cc2)cn1 [1,2-propanediol solvate]	94
Cc1ccc(-c2ncc(Cl)cc2-c2ccc(S(C)(=O)=O)cc2)cn1 [Methanol solvate]	27
Cc1ccc(-c2ncc(Cl)cc2-c2ccc(S(C)(=O)=O)cc2)cn1 [NMP solvate]	79
Cc1ccc(-c2ncc(Cl)cc2-c2ccc(S(C)(=O)=O)cc2)cn1 [DMSO solvate]	66
